System: Lymphocyte
Assay: Inhibition of oxidative stress-induced mitochondrial membrane depolarization in diethyl maleate-treated human lymphocytes obtained from FRDA patient assessed as cells with intact mitochondrial membrane potential at 500 nM pretreated for 16 hrs using TMRM by FACS analysis (reference value: 95%)
Type: functional
Set-up: scale not given: the % may be the effect or the level left
Parameter: Activity (%)
Give the quantity in %, number only.

For orientation, consider the following solved cases.
CCCCCCCCCCCCCCCCc1c(C)c(N(C)C)nc(C)c1O ... 91
CCCCCCCCCCCCCCCCc1nc(N2CCC2)c(C)c(C)c1O ... 85

The compound listed as CCCCCCCCCCCCCCCCCCCc1c(C)c(N(C)C)nc(C)c1O shows Activity equal to 64

Attribution: ChEMBL document CHEMBL3352113
